Where these numbers come from: the supplement of paper PMC11061612

- Tested on: TE-15 (Esophageal Squamous Cell Carcinoma)
- assay_comment: combination Emax (second highest fraction inhibited in the dose matrix, 72 h); higher = more inhibition; extreme values may be limits of the assay

compound: C[C@@H]1COCCN1c1cc(C2([S@](C)(=N)=O)CC2)nc(-c2ccnc3[nH]ccc23)n1 [AZD6738] + C1CC(C1)(C(=O)[O-])C(=O)[O-].N.N.[Pt+2] [Carboplatin] (first compound max 10 µM, 7x7, partner max 10 µM)
combination Emax: 0.857
//
compound: N#Cc1cnc(Nc2cc(NC[C@H]3CNCCO3)c(C(F)(F)F)cn2)cn1 [SRA737] + O=c1[nH]cc(F)c(=O)[nH]1 [5-Fluorouracil] (first compound max 10 µM, 7x7, partner max 20 µM)
combination Emax: 0.705
//
compound: CN(C)CCCOc1ccc(-c2ccc3ncc4c(c3c2)n(C2CCOCC2)c(=O)n4C)cn1 [AZD0156] + C=CCn1c(=O)c2cnc(Nc3ccc(N4CCN(C)CC4)cc3)nc2n1-c1cccc(C(C)(C)O)n1 [AZD1775] (first compound max 1 µM, partner max 1 µM)
combination Emax: 0.454
//
compound: Cc1nc(Nc2ncc(C(=O)Nc3c(C)cccc3Cl)s2)cc(N2CCN(CCO)CC2)n1 [Dasatinib] + CC(=O)Nc1cccc(-n2c(=O)n(C3CC3)c(=O)c3c(Nc4ccc(I)cc4F)n(C)c(=O)c(C)c32)c1 [Trametinib] (first compound max 2 µM, 7x7, partner max 1 µM)
combination Emax: 0.782
//
compound: O=C(c1cc(Cc2n[nH]c(=O)c3ccccc23)ccc1F)N1CCN(C(=O)C2CC2)CC1 [Olaparib] + CN(CC[C@H](CSC1=CC=CC=C1)NC2=C(C=C(C=C2)S(=O)(=O)NC(=O)C3=CC=C(C=C3)N4CCC(CC4)[C@H](C5=CC=CC=C5C6=CC=C(C=C6)Cl)O)S(=O)(=O)C(F)(F)F)CCO [AZD4320] (first compound max 10 µM, 7x7, partner max 1 µM)
combination Emax: 0.22
//
compound: CC1(C)CCC(CN2CCN(c3ccc(C(=O)NS(=O)(=O)c4ccc(NCC5CCOCC5)c([N+](=O)[O-])c4)c(Oc4cnc5[nH]ccc5c4)c3)CC2)=C(c2ccc(Cl)cc2)C1 [Venetoclax] + C1CN(CCC1(C(=O)N[C@@H](CCO)C2=CC=C(C=C2)Cl)N)C3=NC=NC4=C3C=CN4 [Capivasertib] (first compound max 1 µM, 7x7, partner max 3 µM)
combination Emax: 0.401
//
compound: CCN(CCO)CCCOc1ccc2c(Nc3cc(CC(=O)Nc4cccc(F)c4)[nH]n3)ncnc2c1 [AZD2811] + C[C@@H]1COCCN1C2=NC(=NC(=C2)C3(CC3)[S@](=N)(=O)C)C4=C5C=CNC5=NC=C4 [AZD6738] (first compound max 1 µM, 7x7, partner max 10 µM)
combination Emax: 0.731
